Biological target: MMP-2 (gelatinase A) (Homo sapiens, UniProt P08253)
Assay: MMP-2 (gelatinase A) inhibitory activity, FITC-labeled type IV collagen degradation
Conditions: 50% inhibition of collagen type IV degradation; activated pro MMP-2 from transfected COS-1 cells; 42° C., 4 h
What IC50 was measured for each of the following?
Kindly answer with a numeric value in nM, unit omitted.

Ask | Entry CCOc1ccc(C[C@H](NC(=O)[C@H](CCCOc2ccc(OC)cc2)CC(=O)NO)C(=O)NC)cc1 [Compound 52] has what IC50?
Reply | 1

Ask | Next entry: COc1ccc(C[C@H](NC(=O)[C@H](CCCOc2ccc(OC)cc2)CC(=O)O)C(=O)NCCS(N)(=O)=O)cc1 [Compound 20]
Reply | 16

Ask | Try this compound next: C=CCOc1ccc(OCCCC[C@H](CC(=O)O)C(=O)N[C@@H](Cc2ccccc2)C(=O)NC)cc1 [Compound 16]
Reply | 180

Ask | And COc1ccc(OCCC[C@H](CC(=O)O)C(=O)N[C@H](C(=O)NCCS(N)(=O)=O)C(C)(C)C)cc1 [Compound 26] ?
Reply | 48

----------
Molecular target: MMP-9 (gelatinase B) (Homo sapiens, UniProt P14780)
Sequence (P14780 94-707): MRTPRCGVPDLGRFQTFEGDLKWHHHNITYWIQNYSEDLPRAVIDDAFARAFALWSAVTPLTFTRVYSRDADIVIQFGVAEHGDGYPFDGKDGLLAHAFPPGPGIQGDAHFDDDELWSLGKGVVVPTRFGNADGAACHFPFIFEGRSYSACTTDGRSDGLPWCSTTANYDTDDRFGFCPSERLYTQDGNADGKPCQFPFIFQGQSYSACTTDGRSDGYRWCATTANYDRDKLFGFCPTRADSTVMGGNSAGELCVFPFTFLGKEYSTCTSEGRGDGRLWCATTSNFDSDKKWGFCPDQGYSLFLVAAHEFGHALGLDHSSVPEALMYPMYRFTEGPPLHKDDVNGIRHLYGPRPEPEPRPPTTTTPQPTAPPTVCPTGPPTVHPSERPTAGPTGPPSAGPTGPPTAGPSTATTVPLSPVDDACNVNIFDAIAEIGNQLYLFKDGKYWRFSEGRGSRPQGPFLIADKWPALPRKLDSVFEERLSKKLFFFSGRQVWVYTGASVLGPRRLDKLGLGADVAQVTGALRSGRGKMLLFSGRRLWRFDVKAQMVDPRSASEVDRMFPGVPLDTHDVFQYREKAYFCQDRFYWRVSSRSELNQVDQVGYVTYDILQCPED
Experiment: MMP-9 (gelatinase B) inhibitory activity, FITC-labeled type IV collagen degradation
Conditions: 50% inhibition of collagen type IV degradation; MMP-9 derived from human fibrosarcoma; 42° C., 4 h
experimental-endpoint: IC50 (µM)
Give the value in µM but do not write µM after it.

Ask | Using the record for CCOc1ccc(OCCCC[C@H](CC(=O)O)C(=O)N[C@@H](Cc2ccccc2)C(=O)NC)cc1 [Compound 15] , report its IC50.
Reply | 0.42

Ask | Likewise for CNC(=O)[C@@H]1Cc2ccccc2CN1C(=O)[C@H](CCCOc1ccc(OC)cc1)CC(=O)NO [Compound 57] ?
Reply | 0.023

Ask | Please give the result for CCOc1ccc(OCCC[C@H](CC(=O)O)C(=O)N[C@@H](Cc2ccccc2)C(=O)NC)cc1 [Compound 13] too.
Reply | 0.013

Ask | Another: COc1ccc(C[C@H](NC(=O)[C@H](CCCOc2ccc(OC)cc2)CC(=O)O)C(=O)NCCS(N)(=O)=O)cc1 [Compound 20]
Reply | 0.0029

----------
Target: MMP-2 (gelatinase A) (Homo sapiens)
Sequence (P08253 110-660): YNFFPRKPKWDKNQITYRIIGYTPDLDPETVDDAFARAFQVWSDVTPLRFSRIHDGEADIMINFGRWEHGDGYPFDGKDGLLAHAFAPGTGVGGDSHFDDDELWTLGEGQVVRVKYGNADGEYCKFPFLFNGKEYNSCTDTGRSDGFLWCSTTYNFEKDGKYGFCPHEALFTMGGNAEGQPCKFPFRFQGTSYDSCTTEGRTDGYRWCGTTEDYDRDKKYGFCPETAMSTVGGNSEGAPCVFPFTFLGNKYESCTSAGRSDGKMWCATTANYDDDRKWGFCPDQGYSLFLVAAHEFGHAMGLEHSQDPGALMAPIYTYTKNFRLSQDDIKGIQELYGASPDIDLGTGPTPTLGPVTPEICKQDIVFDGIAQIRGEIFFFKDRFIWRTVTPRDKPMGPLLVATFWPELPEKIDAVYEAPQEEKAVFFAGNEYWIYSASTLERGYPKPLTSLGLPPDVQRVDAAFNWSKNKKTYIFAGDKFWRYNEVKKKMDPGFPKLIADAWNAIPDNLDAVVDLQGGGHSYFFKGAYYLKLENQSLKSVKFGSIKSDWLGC
Assay: MMP-2 (gelatinase A) inhibitory activity, FITC-labeled type IV collagen degradation
Settings: 50% inhibition of collagen type IV degradation; activated pro MMP-2 from transfected COS-1 cells; 42° C., 4 h
Hi there, I'd appreciate the recorded log10(IC50) for every entry that follows.
Response schema: value (number) is log10 of IC50 in units of nM.

Ask | Request body: readout log10(IC50), system MMP-2 (gelatinase A) (Homo sapiens), query CNC(=O)[C@H](Cc1ccccc1)NC(=O)[C@H](CCCCOc1ccc(OC)cc1)CC(=O)O [Compound 14] . Return the value.
Reply | 2.20

Ask | Similarly, CCOc1ccc(OCCCC[C@H](CC(=O)O)C(=O)N[C@@H](Cc2ccccc2)C(=O)NC)cc1 [Compound 15] ?
Reply | 1.79

Ask | Try CNC(=O)[C@H](Cc1ccc(OC)cc1)NC(=O)[C@H](CCCOc1ccc(OC)cc1)CC(=O)OCc1oc(=O)oc1C [Compound 63] next.
Reply | 3.20

Ask | Another molecule to check: CNC(=O)[C@H](Cc1ccccc1)NC(=O)[C@H](CCCc1ccc2cccccc1-2)CC(=O)NO [Compound 35]
Reply | 3.11

Ask | # iterate: CCOc1ccc(OCCC[C@H](CC(=O)O)C(=O)N[C@@H](Cc2ccccc2)C(=O)NC)cc1 [Compound 13]
Reply | 1.26

Ask | Queued: CCOc1ccc(OCC[C@H](CC(=O)O)C(=O)N[C@@H](Cc2ccccc2)C(=O)NC)cc1 [Compound 9]
Reply | 1.69

Ask | Would you kindly repeat that for C=CCOc1ccc(OCCCC[C@H](CC(=O)NO)C(=O)N[C@@H](Cc2ccccc2)C(=O)NC)cc1 [Compound 46] ?
Reply | 2.40

Reference source: patent US5990158A
